Recorded log10(MIC) values for a group of molecules are listed next.
Test system: Pseudomonas aeruginosa
experimentNotes: Antibacterial activity against Pseudomonas aeruginosa ATCC 27853 assessed as inhibition of bacterial growth measured after 24 hrs incubation
Assay type: functional
valueType: log10(MIC) (log10 of the value in µg/mL)

molecule=CCn1cc(C(=O)O)c(=O)c2cc(F)c(N3CCN(C(=O)/C(C#N)=C/c4cn(CC(=O)N5CCOCC5)c5ccccc45)CC3)cc21 valuetype=log10(MIC) resultvalue=-0.60
molecule=CCn1cc(C(=O)O)c(=O)c2cc(F)c(N3CCN(C(=O)/C(C#N)=C/c4cn(CC#N)c5ccccc45)CC3)cc21 valuetype=log10(MIC) resultvalue=-0.30
molecule=CCCCn1cc(C(=O)O)c(=O)c2cc(F)c(N3CCN(C(=O)/C(C#N)=C/c4cn(CC(=O)OCC)c5ccccc45)CC3)cc21 valuetype=log10(MIC) resultvalue=0.00
molecule=CCn1cc(C(=O)O)c(=O)c2cc(F)c(N3CCN(C(=O)/C(C#N)=C/c4c[nH]c5c(C)cccc45)CC3)cc21 valuetype=log10(MIC) resultvalue=0.00
molecule=C=CCn1cc(/C=C(\C#N)C(=O)N2CCN(c3cc4c(cc3F)c(=O)c(C(=O)O)cn4CC)CC2)c2ccccc21 valuetype=log10(MIC) resultvalue=-0.60
molecule="CCn1cc(C(=O)O)c(=O)c2cc(F)c(N3CCNCC3)cc21 [NORFLOXACIN]" valuetype=log10(MIC) resultvalue=0.00
molecule=CCCCCCCCn1cc(/C=C(\C#N)C(=O)N2CCN(c3cc4c(cc3F)c(=O)c(C(=O)O)cn4CC)CC2)c2ccccc21 valuetype=log10(MIC) resultvalue=1.51
molecule=CCn1cc(C(=O)O)c(=O)c2cc(F)c(N3CCN(C(=O)/C(C#N)=C/c4cn(CC(=O)O)c5ccccc45)CC3)cc21 valuetype=log10(MIC) resultvalue=-0.30
molecule=CCn1cc(C(=O)O)c(=O)c2cc(F)c(N3CCN(C(=O)/C(C#N)=C/c4cn(Cc5ccccc5Cl)c5ccccc45)CC3)cc21 valuetype=log10(MIC) resultvalue=0.00
molecule=CCn1cc(C(=O)O)c(=O)c2cc(F)c(N3CCN(C(=O)/C(C#N)=C/c4c(C)[nH]c5ccccc45)CC3)cc21 valuetype=log10(MIC) resultvalue=-0.30
molecule=CCOC(=O)Cn1cc(/C=C(\C#N)C(=O)N2CCN(c3cc4c(cc3F)c(=O)c(C(=O)O)cn4CC=C(C)C)CC2)c2ccccc21 valuetype=log10(MIC) resultvalue=1.20
molecule=CCn1cc(C(=O)O)c(=O)c2cc(F)c(N3CCN(C(=O)/C(C#N)=C/c4c[nH]c5cc(F)ccc45)CC3)cc21 valuetype=log10(MIC) resultvalue=0.00
molecule=CCn1cc(C(=O)O)c(=O)c2cc(F)c(N3CCN(C(=O)/C(C#N)=C/c4cn(CC5CCC5)c5ccccc45)CC3)cc21 valuetype=log10(MIC) resultvalue=0.60
molecule=CCn1cc(C(=O)O)c(=O)c2cc(F)c(N3CCN(C(=O)/C(C#N)=C/c4cn(Cc5ccc(Cl)cc5)c5ccccc45)CC3)cc21 valuetype=log10(MIC) resultvalue=0.00
molecule=C#CCn1cc(/C=C(\C#N)C(=O)N2CCN(c3cc4c(cc3F)c(=O)c(C(=O)O)cn4CC)CC2)c2ccccc21 valuetype=log10(MIC) resultvalue=0.60

Sourced from ChEMBL document CHEMBL5512655
